The reported measurements were obtained from paper PMC9763021.

Examples of compounds with documented IC50 follow.
assay: Nitric oxide scavenging assay; type: biochemical
Just the number please, in µM, no unit attached.

* [Cu+2].[O-]c1ccccc1N=Cc1ccc(N2CCOCC2)cc1.[O-]c1ccccc1N=Cc1ccc(N2CCOCC2)cc1.c1ccc(-c2ccccn2)nc1 [(1a), [Cu(L)2(bpy)]] | 200

API: the following record is the query input.
Q: Return the recorded IC50 value; entry: O=C1O[C@H]([C@@H](O)CO)C(O)=C1O [Ascorbic acid, reference compound]
A: 160

---

System: Salmonella enteric serovar typhi
Assay: Agar disc diffusion, strain C
Format: cell-based
Protocol: In-vitro antimicrobial properties were evaluated for all samples by the agar disc diffusion method towards different fungal and bacterial strains. Additionally, the reported inhibition zone values were comparatively analyzed with the standard antifungal drugs ketoconazole and amphotericin B as well as the standard antibiotic medications streptomycin and amikacin. […]
Examples of compounds with documented (inhibition %) follow.
Just the number please, in %, no unit attached.

Study these solved cases before continuing.
• NCC[C@H](O)C(=O)N[C@@H]1C[C@H](N)[C@@H](O[C@H]2O[C@H](CN)[C@@H](O)[C@H](O)[C@H]2O)[C@H](O)[C@H]1O[C@H]1O[C@H](CO)[C@@H](O)[C@H](N)[C@H]1O [Amikacin, reference compound] = 75
• [O-]c1ccccc1N=Cc1ccc(N2CCOCC2)cc1.[O-]c1ccccc1N=Cc1ccc(N2CCOCC2)cc1.[Zn+2].c1ccc(-c2ccccn2)nc1 [(2a), [Zn(L)2(bpy)]] = 33

Q: Return the recorded (inhibition %) value; entry: [H]/N=C(/N)N[C@H]1[C@H](O)[C@@H](O)[C@H](O[C@@H]2O[C@@H](C)[C@](O)(C=O)[C@H]2O[C@@H]2O[C@@H](CO)[C@H](O)[C@@H](O)[C@@H]2NC)[C@@H](N/C(N)=N\[H])[C@@H]1O [Streptomycin, reference compound]
A: 75

Q: Return the recorded (inhibition %) value; entry: [Cu+2].[O-]c1ccccc1N=Cc1ccc(N2CCOCC2)cc1.[O-]c1ccccc1N=Cc1ccc(N2CCOCC2)cc1.c1ccc(-c2ccccn2)nc1 [(1a), [Cu(L)2(bpy)]]
A: 50

Q: Return the recorded (inhibition %) value; entry: "Oc1ccccc1N=Cc1ccc(N2CCOCC2)cc1"
A: 45
